Reference source: ChEMBL document CHEMBL1833865

Tested on: HepG2
Test: Cytotoxicity against human HepG2 cells assessed as cell viability at 10 uM after 24 hrs by MTS assay
Type: cell-based
Conditions: hepg2, 24 h

{"compound": "CC1(C)CC[C@]2(C(=O)O[C@@H]3O[C@H](CO)[C@@H](O)[C@H](O)[C@H]3O)CC[C@]3(C)C(=CC[C@@H]4[C@@]5(C)CC[C@H](O[C@@H]6O[C@H](C(=O)O)[C@@H](O[C@@H]7O[C@@H](CO)[C@H](O)[C@H]7O)[C@H](O)[C@H]6O[C@@H]6O[C@H](CO)[C@@H](O)[C@H](O)[C@H]6O)C(C)(C)[C@@H]5CC[C@]43C)[C@@H]2C1 [TARASAPONIN IV]", "Activity": "Non-toxic"}
{"compound": "CC1(C)CC[C@]2(C(=O)O[C@@H]3O[C@H](CO)[C@@H](O)[C@H](O)[C@H]3O)CC[C@]3(C)C(=CC[C@@H]4[C@@]5(C)CC[C@H](O[C@@H]6O[C@H](C(=O)O)[C@@H](O)[C@H](O[C@@H]7O[C@H](CO)[C@@H](O)[C@H](O)[C@H]7O)[C@H]6O[C@@H]6OC[C@H](O)[C@H](O)[C@H]6O)C(C)(C)[C@@H]5CC[C@]43C)[C@@H]2C1", "Activity": "Non-toxic"}
{"compound": "COC(=O)[C@H]1O[C@@H](O[C@H]2CC[C@]3(C)[C@H]4CC=C5[C@@H]6CC(C)(C)CC[C@]6(C(=O)O[C@@H]6O[C@H](CO)[C@@H](O)[C@H](O)[C@H]6O)CC[C@@]5(C)[C@]4(C)CC[C@H]3C2(C)C)[C@H](O[C@@H]2OC[C@H](O)[C@H](O)[C@H]2O)[C@@H](O[C@@H]2O[C@H](CO)[C@@H](O)[C@H](O)[C@H]2O)[C@@H]1O", "Activity": "Non-toxic"}
